- Test system: primary melanocytes
- Method Description: Safety, MTT test in primary melanocytes
- Format: cell-based
- Particulars: 200 μM, 48 hours
Give MTT, Primary melanocytes for every item shown.

Ask | Please look up its MTT, Primary melanocytes: Cc1ccc(/C=C/C(=O)NCCCCCO)cc1 [H-415/21]
Reply | 94.81 ± 2.92 % of solvent control

Ask | Please look up its MTT, Primary melanocytes: O=C(/C=C/c1ccc(Cl)cc1)NCCCO [H-330/21]
Reply | 93.78 ± 2.29 % of solvent control

Ask | Please look up its MTT, Primary melanocytes: O=C(/C=C/c1ccc(Cl)cc1)NCCO [H-427/21]
Reply | 93.78 ± 2.18 % of solvent control

Ask | Please look up its MTT, Primary melanocytes: O=C(/C=C/c1ccccc1)NCCCCCO [Compound A-133]
Reply | 97.05 ± 2.96 % of solvent control

Ask | Please look up its MTT, Primary melanocytes: O=C(/C=C/c1ccc(Cl)cc1)NCCCCCO [Compound A-111]
Reply | 99.25 ± 1.92 % of solvent control

###

- System: keratinocytes (HaCaT)
- Method Description: Safety, LDH test in keratinocytes
- Format: cell-based
- Particulars: 150 μM, 48 hours, vs Triton X-100
- Text: In order to test the safety of the compounds, both normal human cells were used: keratinocytes (HaCaT), fibroblasts (BJ), primary melanocytes that occur in the skin, as well as human cancer cells: the hepatocarcinoma line HepG2 and the neuroblastoma line SH-SY5Y, which are considered a model for the assessment of hepatocytotoxicity and neurocytotoxicity. […] The absorbance at 570 nm, which corresponds to the absorption maximum for the product, is directly proportional to cell viability. […]
Give LDH, Keratinocytes (HaCaT) for every item shown.

Ask | Recorded LDH, Keratinocytes (HaCaT) for O=C(/C=C/c1ccccc1)NCCCCCO [Compound A-133] with keratinocytes (HaCaT), please?
Reply | 3.08 percentage of positive control

Ask | Recorded LDH, Keratinocytes (HaCaT) for O=C(/C=C/c1ccc(Cl)cc1)NCCCO [H-330/21] with keratinocytes (HaCaT), please?
Reply | 5.33 percentage of positive control

Ask | Recorded LDH, Keratinocytes (HaCaT) for O=C(/C=C/c1ccc(Cl)cc1)NCCCCCO [Compound A-111] with keratinocytes (HaCaT), please?
Reply | 4.43 percentage of positive control

Ask | Recorded LDH, Keratinocytes (HaCaT) for O=C(/C=C/c1ccc(Cl)cc1)NCCO [H-427/21] with keratinocytes (HaCaT), please?
Reply | 3.69 percentage of positive control

Ask | Recorded LDH, Keratinocytes (HaCaT) for Cc1ccc(/C=C/C(=O)NCCCCCO)cc1 [H-415/21] with keratinocytes (HaCaT), please?
Reply | 6.70 percentage of positive control

###

- Tested on: B16-F10 murine melanoma cell line
- Method Description: Cytotoxicity (MTT) in B16-F10 murine melanoma cells
- Assay type: cell-based
- Particulars: 250 μM, 48 h
Each record is given satisfied if its reported Cytotoxicity study in B16F10 cells, % viability is strictly below 90%. Records at or above 90% are given not satisfied.

Ask | Lab note: Cytotoxicity study in B16F10 cells, % viability threshold 90%. Does this molecule come in strictly under it? O=C(/C=C/c1ccc(Cl)cc1)NCCCCCCO
Reply | satisfied

Ask | Lab note: Cytotoxicity study in B16F10 cells, % viability threshold 90%. Does this molecule come in strictly under it? Cc1ccc(/C=C/C(=O)NC(C)CO)cc1 (centres unmarked)
Reply | not satisfied

Ask | Lab note: Cytotoxicity study in B16F10 cells, % viability threshold 90%. Does this molecule come in strictly under it? O=C(/C=C/c1ccccc1)NCCCCCCO
Reply | satisfied

Ask | Lab note: Cytotoxicity study in B16F10 cells, % viability threshold 90%. Does this molecule come in strictly under it? CCC(CO)NC(=O)/C=C/c1ccc(Cl)cc1Cl (centres unmarked)
Reply | satisfied

Ask | Lab note: Cytotoxicity study in B16F10 cells, % viability threshold 90%. Does this molecule come in strictly under it? CC(CO)NC(=O)/C=C/c1ccc(Cl)cc1 (centres unmarked)
Reply | satisfied

Ask | Lab note: Cytotoxicity study in B16F10 cells, % viability threshold 90%. Does this molecule come in strictly under it? O=C(/C=C/c1ccc(Cl)cc1)NCCCCO
Reply | satisfied

Ask | Lab note: Cytotoxicity study in B16F10 cells, % viability threshold 90%. Does this molecule come in strictly under it? CCC(O)CNC(=O)/C=C/c1ccc(Cl)cc1 (centres unmarked)
Reply | satisfied

Ask | Lab note: Cytotoxicity study in B16F10 cells, % viability threshold 90%. Does this molecule come in strictly under it? CCC(CO)NC(=O)/C=C/c1ccc(C)cc1 (centres unmarked)
Reply | not satisfied

###

- Tested on: S. typhimurium TA1535
- Method Description: Ames microplate test, TA1535
- Particulars: 0.5 mM, + S9
Give Increase in the number of yellow wells compared to the reference level, TA1535 for every item shown.
The reply should be a number, written without any unit.

Ask | Please look up its Increase in the number of yellow wells compared to the reference level, TA1535: CCC(O)CNC(=O)/C=C/c1ccc(Cl)cc1 (stereo not shown) [Compound A-67]
Reply | 0.27

Ask | Please look up its Increase in the number of yellow wells compared to the reference level, TA1535: O=C(/C=C/c1ccccc1)NCCCCCCO [H-425/21]
Reply | 0.54

Ask | Please look up its Increase in the number of yellow wells compared to the reference level, TA1535: O=C(/C=C/c1ccc(Cl)cc1)NCCCCCO [Compound A-111]
Reply | 0.58

Ask | Please look up its Increase in the number of yellow wells compared to the reference level, TA1535: O=C(/C=C/c1ccccc1)NCCCCCO [Compound A-133]
Reply | 0.47

###

- Tested on: neuroblastoma SH-SY5Y
- Method Description: Safety, MTT test in SH-SY5Y
- Type: cell-based
- Particulars: 250 μM, 48 hours
Endpoint Name: MTT, Neuroblastoma SH-SY5Y

Ask | Please look up its MTT, Neuroblastoma SH-SY5Y: O=C(/C=C/c1ccc(Cl)cc1)NCCCCCO [Compound A-111]
Reply | 99.93 ± 4.36 % of solvent control

Ask | Please look up its MTT, Neuroblastoma SH-SY5Y: Cc1ccc(/C=C/C(=O)NCCCCCO)cc1 [H-415/21]
Reply | 101.71 ± 2.38 % of solvent control

Ask | Please look up its MTT, Neuroblastoma SH-SY5Y: O=C(/C=C/c1ccc(Cl)cc1)NCCO [H-427/21]
Reply | 102.60 ± 9.66 % of solvent control

Ask | Please look up its MTT, Neuroblastoma SH-SY5Y: O=C(/C=C/c1ccc(Cl)cc1)NCCCO [H-330/21]
Reply | 99.11 ± 3.66 % of solvent control

Ask | Please look up its MTT, Neuroblastoma SH-SY5Y: O=C(/C=C/c1ccccc1)NCCCCCO [Compound A-133]
Reply | 100.41 ± 1.87 % of solvent control

###

- Tested on: hepatocarcinoma HepG2
- Method Description: Safety, LDH test in HepG2
- Type: cell-based
- Particulars: 200 μM, 48 hours, vs Triton X-100
Endpoint Name: LDH, Hepatocarcinoma HepG2

Ask | Please look up its LDH, Hepatocarcinoma HepG2: O=C(/C=C/c1ccc(Cl)cc1)NCCCO
Reply | 12.16 percentage of positive control

Ask | Please look up its LDH, Hepatocarcinoma HepG2: O=C(/C=C/c1ccccc1)NCCCCCO
Reply | 9.65 percentage of positive control

Ask | Please look up its LDH, Hepatocarcinoma HepG2: Cc1ccc(/C=C/C(=O)NCCCCCO)cc1
Reply | 8.92 percentage of positive control

Ask | Please look up its LDH, Hepatocarcinoma HepG2: O=C(/C=C/c1ccc(Cl)cc1)NCCCCCO
Reply | 5.48 percentage of positive control

Ask | Please look up its LDH, Hepatocarcinoma HepG2: O=C(/C=C/c1ccc(Cl)cc1)NCCO
Reply | 5.98 percentage of positive control

###

Give Increase in the number of yellow wells compared to the reference level, TA1535 for every item shown.
- Tested on: S. typhimurium TA1535
- Method Description: Ames microplate test, TA1535;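 also: bacteria exposed 90 min at 37 °C in exposure medium, then 48 h in indicator medium in 384-well plates, yellow (revertant) wells counted per condition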
- Particulars: 1.0 mM, + S9
The reply should be a number, written without any unit.

Ask | Recorded Increase in the number of yellow wells compared to the reference level, TA1535 for O=C(/C=C/c1ccccc1)NCCCCCO [Compound A-133] with S. typhimurium TA1535, please?
Reply | 0.23

Ask | Recorded Increase in the number of yellow wells compared to the reference level, TA1535 for CCC(O)CNC(=O)/C=C/c1ccc(Cl)cc1 (stereo not shown) [Compound A-67] with S. typhimurium TA1535, please?
Reply | 0.54

Ask | Recorded Increase in the number of yellow wells compared to the reference level, TA1535 for O=C(/C=C/c1ccc(Cl)cc1)NCCCCCO [Compound A-111] with S. typhimurium TA1535, please?
Reply | 0.35

Ask | Recorded Increase in the number of yellow wells compared to the reference level, TA1535 for O=C(/C=C/c1ccccc1)NCCCCCCO [H-425/21] with S. typhimurium TA1535, please?
Reply | 0.40
